Would you mind telling me the reported inhibition at 0.25 h, 10 µM of each entry?
Target: CYP3A4 (Homo sapiens)
Sequence (P08684 whole entry): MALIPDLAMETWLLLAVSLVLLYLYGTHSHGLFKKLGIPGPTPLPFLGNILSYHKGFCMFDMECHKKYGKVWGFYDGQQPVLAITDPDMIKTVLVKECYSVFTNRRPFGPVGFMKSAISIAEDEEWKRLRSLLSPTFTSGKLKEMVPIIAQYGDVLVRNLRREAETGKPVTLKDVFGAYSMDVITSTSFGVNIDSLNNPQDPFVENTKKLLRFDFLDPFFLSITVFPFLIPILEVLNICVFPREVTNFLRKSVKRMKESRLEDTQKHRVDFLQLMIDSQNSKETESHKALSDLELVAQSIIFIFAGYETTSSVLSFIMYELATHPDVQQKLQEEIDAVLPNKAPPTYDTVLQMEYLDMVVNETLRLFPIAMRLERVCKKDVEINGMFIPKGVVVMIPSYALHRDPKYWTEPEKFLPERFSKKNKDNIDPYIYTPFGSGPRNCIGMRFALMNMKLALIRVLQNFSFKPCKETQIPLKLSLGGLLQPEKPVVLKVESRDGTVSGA
Assay: Inhibition of CYP3A4 in human liver microsomes assessed as reduction in midazolam 1-hydroxylase activity at 10 uM preincubated for 5 mins followed by NADPH addition and measured after 15 mins by LC-MS/MS analysis relative to control
Format: ADME
Settings: probe midazolam (1-hydroxylation)
Field format: number, assumed %, no unit text.

QUERY: Please look at this compound and report its inhibition at 0.25 h, 10 µM: Cc1ccc(/C(=C(\CCCO)c2ccccc2)c2ccc(N3CCN(C(C)C)CC3)cc2)cc1.Cl.Cl
RESULT: 47

QUERY: Given the compound Cc1ccc(/C(=C(\CCCO)c2ccccc2)c2ccc(N3CCNCC3)cc2)cc1.Cl.Cl , write its reported inhibition at 0.25 h, 10 µM.
RESULT: 59.9

QUERY: Consider the compound CC(C)N1CCN(c2ccc(/C(=C(/CCCO)c3ccccc3)c3ccc(O)cc3)cc2)CC1.Cl.Cl and give its recorded inhibition at 0.25 h, 10 µM.
RESULT: 33.6

QUERY: Quote inhibition at 0.25 h, 10 µM reported for CCN1CCN(c2ccc(/C(=C(/CCCO)c3ccccc3)c3ccc(C)cc3)cc2)CC1.Cl.Cl please.
RESULT: 22.4

###

Assay: Oral bioavailability in Sprague-Dawley rat at 9 to 10 mg/kg via gavage by LC-MS/MS analysis
Format: ADME, organism-based
Settings: in vivo
Hi there, I'd appreciate the recorded bioavailability for every entry that follows.
Report as a plain number; the unit % is understood.

QUERY: Supply measured bioavailability of CCN1CCN(c2ccc(/C(=C(/CCCO)c3ccccc3)c3ccc(C)cc3)cc2)CC1.Cl.Cl in your reply.
RESULT: 19.6

QUERY: Supply reported bioavailability belonging to this compound: Cc1ccc(/C(=C(\CCCO)c2ccccc2)c2ccc(N3CCN(C)CC3)cc2)cc1.Cl.Cl
RESULT: 18.3

QUERY: Name the recorded bioavailability of the item Cc1ccc(/C(=C(\CCCO)c2ccccc2)c2ccc(N3CCN(C(C)C)CC3)cc2)cc1.Cl.Cl in your answer.
RESULT: 17.6

QUERY: Report bioavailability for CN(C)CCOc1ccc(/C(=C(/CCCO)c2ccccc2)c2ccc(O)cc2)cc1.Cl
RESULT: 8.4

###

Target: Estrogen receptor (Homo sapiens)
Sequence (P03372 whole entry): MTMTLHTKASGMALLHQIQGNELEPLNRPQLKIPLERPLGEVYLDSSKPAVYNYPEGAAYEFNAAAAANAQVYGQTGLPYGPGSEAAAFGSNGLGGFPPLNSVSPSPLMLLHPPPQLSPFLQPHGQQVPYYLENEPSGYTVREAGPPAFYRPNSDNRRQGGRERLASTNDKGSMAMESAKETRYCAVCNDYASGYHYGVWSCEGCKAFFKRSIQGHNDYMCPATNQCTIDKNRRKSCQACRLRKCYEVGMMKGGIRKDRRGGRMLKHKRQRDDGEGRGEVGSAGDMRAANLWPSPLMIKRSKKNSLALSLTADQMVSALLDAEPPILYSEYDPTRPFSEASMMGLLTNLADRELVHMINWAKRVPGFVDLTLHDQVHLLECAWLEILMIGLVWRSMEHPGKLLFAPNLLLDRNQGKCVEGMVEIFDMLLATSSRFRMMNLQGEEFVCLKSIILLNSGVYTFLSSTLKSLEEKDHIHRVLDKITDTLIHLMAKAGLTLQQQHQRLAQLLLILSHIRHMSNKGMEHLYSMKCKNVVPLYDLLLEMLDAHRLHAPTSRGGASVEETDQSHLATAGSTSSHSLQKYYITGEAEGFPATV
Answer each item with its documented IC50.
# output: bare number, implied unit nM

QUERY: Please respond with reported IC50 (system Estrogen receptor (Homo sapiens)) for OCCC/C(=C(\c1ccc(O)cc1)c1ccc(N2CCNCC2)cc1)c1ccccc1 .
RESULT: 2500

QUERY: Consider the compound CN1CCN(c2ccc(/C(=C(/CCCO)c3ccccc3)c3ccc(O)cc3)cc2)CC1 tested on Estrogen receptor (Homo sapiens); state its IC50.
RESULT: 1700
